EXPERIMENTAL TARGET: T1, UNK ZnF1-3 (human, UniProt Q9C0B0 31-174)
T1 sequence: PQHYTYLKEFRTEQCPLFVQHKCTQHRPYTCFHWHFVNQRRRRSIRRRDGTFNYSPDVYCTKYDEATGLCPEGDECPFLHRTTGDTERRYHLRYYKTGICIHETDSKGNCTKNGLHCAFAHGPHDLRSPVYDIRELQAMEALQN
METHOD SUMMARY: nsRBNS (natural sequence RNA bind-n-seq); RBNS binding buffer (assumed for nsRBNS): 25 mM Tris pH 7.5, 150 mM KCl, 3 mM MgCl2, 0.01% Triton X-100, 500 ug/ml BSA, 20 U/ml SUPERase-In, 4 C; UNK is unkempt and MSI1 is Musashi-1; names of the RNAs are library labels; protein concentration not given here; high values mean tight binding
Whole data set: some 24,000 sequences, median “enrichment r” near 0.99, cut for the highest 2% near 3.7. The sample holds the highest values, similar sequences and a random draw of the others, so the mix is not that of the screen.
The following binders are listed with their measured binding signal values.
Quick reminder: number only, in enrichment R, skip the unit.

Here's what some known entries look like.
- BINDER: "chr18:9954606:9954607:+_ENSG00000101558_ENST00000400000|hu_mus|FALSE|FALSE (ssRNA) RNA: GGGAGUUCUACAGUCCGACGAUCCCAUUUCCCCCACAGAAAACCUCUUGGCAUUUCCUGAAUGAGUGGGAUUAGCAAUCUAAAUAAAUCAUAUUUCAAGAGGUAACAGCAACAGAUAAAAUUUAAAGGAAUUAUUAAAAUAACCAACAGAGGAUUGAGCAUCA"
  UOM: "enrichment R"
  NUMBER: 4.49
- BINDER: "chr2:73656703:73656704:-_ENSMUSG00000027104_ENSMUST00000100009|mus_hu|FALSE|FALSE (ssRNA) RNA: GGGAGUUCUACAGUCCGACGAUCAAGAAAUGGAAGUGGGAAGAAAGAUUCAGUAACACCCCCAUUUAUUAAAACACCAGCAAAUUAAAAGUGAAAUAAAUCACAAUGAAUUAUAAUACAAUUUACACAUUGAGCACAGAAAAACAACAGAGGAUUGAGCAUCA"
  UOM: "enrichment R"
  NUMBER: 4.55
- BINDER: "54572216_54573035_2393_CDS_ENSG00000067248_ENST00000251636|human|control|control (ssRNA) RNA: GGGAGUUCUACAGUCCGACGAUCAUCUUCAAGAUGAAAAACCUCAACAGGAUAACUUCUUCCUGAAAUUCUGAGAAUGGGGCAGUGUGUGAAAUAUGUAGAAAAUUUUUCGCUGUCCACAGUGGCACUCAUUAGAAUCAAGUGCAACAGAGGAUUGAGCAUCA"
  UOM: "enrichment R"
  NUMBER: 1.16

Which binding signal value is on record for chr19:16212804:16212805:+_ENSG00000167460_ENST00000300933|hu_mus|hu_hu_hu_mus_False|48_58 (ssRNA) RNA: GGGAGUUCUACAGUCCGACGAUCAACAAUUCUGGAGUGAAGGAAAGAUGUAACAUGGAACAGCAUUAAAGCUCAGUAUUACUAUAUGUGGGUAAUUAUGAUCACCCCAGCAUUCUCGCUUGGAAUGCUUAAAGACAAUCUGUUCAACAGAGGAUUGAGCAUCA ? 0.913

Repeat for the following binder: chr3:75345182:75345183:-_ENSMUSG00000027835_ENSMUST00000161137|mus_hu|FALSE|FALSE (ssRNA) RNA: GGGAGUUCUACAGUCCGACGAUCAUGUGGUCUCAGCUUCAUUCUUCAUCUCUUCCAUUGUCAUCCUCAUUCAAAAGCCAACUACAGUUGAAAAAGCAGUGCUAAAAUGCAGAGGAAUCUUCAUUCACUGCAAUAUUUCUUCUCCAACAGAGGAUUGAGCAUCA 1.23

Repeat for the following binder: chr9:42776432:42776433:-_ENSMUSG00000059495_ENSMUST00000165665|mus_hu|FALSE|FALSE (ssRNA) RNA: GGGAGUUCUACAGUCCGACGAUCUAACAAAUUUAUAGUCAAGAAAAUAAAAUUUGCUUUCCUCUCCCACCCAAAUCCCAACCCUCAAUAGAAAAGACGACAAUGGAAGAAAACACACCCAUUUUCAAGUGCCUGCUAUUUAGUCAACAGAGGAUUGAGCAUCA 4.14

Repeat for the following binder: 104554200_104554320_324_3pUTR_ENSMUSG00000032621_ENSMUST00000074616|mouse|control|control (ssRNA) RNA: GGGAGUUCUACAGUCCGACGAUCAUCAGAUCCAUACAAAGAAACAAAUAAGAAGAACAUAAGGCUUUCCUUUUAUCCUGCUCUAUUAGGAAAAAUAAAAGUGAGCAAAACUUCAAAGACUAACAAUCUCAUUAAUGGAACAUUCAACAGAGGAUUGAGCAUCA 0.765

Numbers sourced from paper PMC12136788.
